experiment: physchem; conditions: buffer, pH 7.4
quantity: logD

> print(dat)
                          compoundstructure  quantity  measurement
1  Cn1cnc(-c2ccc(OC3CCN(C(=O)Cc4ccc(OC(F)(F)F)cc4)CC3)c(C(N)=O)c2)c1      logD          2.9

----------
test: in vitro; details: human, liver microsomes
quantity: microsomal CLint at 1 h, 1 µM

> print(dat)
                          compoundstructure    measurement
1  Cn1cnc(-c2ccc(OC3CCN(C(=O)Cc4ccc(OC(F)(F)F)cc4)CC3)c(C(N)=O)c2)c1  < 8 µL/min/mg

----------
test: in vitro; settings: human, hepatocytes
quantity: hepatocyte CLint at 4 h, 1 µM

> print(dat)
                          compoundstructure                       quantity         measurement
1  Cn1cnc(-c2ccc(OC3CCN(C(=O)Cc4ccc(OC(F)(F)F)cc4)CC3)c(C(N)=O)c2)c1  hepatocyte CLint at 4 h, 1 µM  8 µL/min/1e6 cells

----------
assay: in vitro; settings: dog, MDCK
quantity: Papp A→B (×10⁻⁶ cm/s)

> print(dat)
                          compoundstructure  measureunit  measurement
1  Cn1cnc(-c2ccc(OC3CCN(C(=O)Cc4ccc(OC(F)(F)F)cc4)CC3)c(C(N)=O)c2)c1   ×10⁻⁶ cm/s           10
